B1: MGC16075 (parent)
chain: AGSRQALSFEVPPCNYDPEKWIQ

variants of: B1; test: protein stability index of a GFP-peptide fusion (GPS, HEK-293T) (PSI 1-6); higher = more stable; details: c terminus: native;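 note: lentivirally expressed fusions sorted by FACS into six bins by GFP to DsRed ratio, PSI derived from sequencing read proportions per bin multiplied by bin number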
Below is a list of entries, each paired with its recorded protein stability index value.

| variant_key | protein stability index |
| --- | --- |
| V11W | 2.04 |
| A6Q | 1.99 |
| S8L | 1.98 |
| Q5G | 2.03 |

# credit: the supplement of paper PMC10567573
